- EXPERIMENTAL SYSTEM: Coagulation factor VII (Homo sapiens, UniProt P08709)
- Sequence (P08709 61-212 limits assumed): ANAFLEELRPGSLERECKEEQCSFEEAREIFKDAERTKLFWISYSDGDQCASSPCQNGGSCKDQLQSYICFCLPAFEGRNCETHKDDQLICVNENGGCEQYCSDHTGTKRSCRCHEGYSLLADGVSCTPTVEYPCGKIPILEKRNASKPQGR
- Sequence (P08709 213-466 limits assumed): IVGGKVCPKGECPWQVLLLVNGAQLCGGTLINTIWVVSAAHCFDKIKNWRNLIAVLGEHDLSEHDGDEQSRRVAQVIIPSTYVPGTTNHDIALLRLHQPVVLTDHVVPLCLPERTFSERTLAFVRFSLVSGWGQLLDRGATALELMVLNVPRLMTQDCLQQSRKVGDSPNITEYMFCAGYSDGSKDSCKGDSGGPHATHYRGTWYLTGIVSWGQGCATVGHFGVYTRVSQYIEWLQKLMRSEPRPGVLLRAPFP
- PROTOCOL DETAILS: Inhibition of human factor 7a
RECORDED METRIC: pKi
Recall that pKi is obtained by taking minus log10 of the concentration measured in molar.

What does the record list as pKi for CCOc1cc(C(Nc2ccc(C(=N)N)cc2)C(=O)NS(=O)(=O)c2ccccc2)ccc1OC(C)C (stereo unspecified) ?
9.00

====

- EXPERIMENTAL SYSTEM: UniProt:P08709
- PROTOCOL DETAILS: Inhibition of human factor 7a using H-D-Ile-Pro-Arg-pNA substrate
So I've got a bunch of compounds here, and I need their Ki values.
Express your answer in µM, writing the number without its unit.

Quick check: Ki of CCOc1cc(OC(C)C)c(F)c(C(Nc2ccc(C(=N)N)cc2)c2nc(-c3cccc(OC)c3)c[nH]2)c1 (stereo unspecified) ?
0.048

Would you kindly repeat that for CCOc1cc(OC(C)C)c(F)c(C(Nc2ccc(C(=N)N)cc2)c2nc(-c3ccccc3C(=O)NC)c[nH]2)c1 (stereo unspecified) ?
0.068

Subsequent entry: CCOc1cc(OC(C)C)c(F)c(C(Nc2ccc(C(=N)N)cc2)c2nc(-c3cccc(C)c3)c[nH]2)c1 (stereo unspecified)
0.037

Next: CCOc1cc(OC(C)C)c(F)c(C(Nc2ccc(C(=N)N)cc2)c2ccccn2)c1 (stereo unspecified)
0.75

Another compound: CCOc1cc(OC(C)C)c(F)c(C(Nc2ccc(C(=N)N)cc2)c2nc(-c3ccccc3C(=O)O)c[nH]2)c1 (stereo unspecified)
0.0061

Now try CCOc1cc(OC(C)C)c(F)c(C(Nc2ccc(C(=N)N)cc2)c2nc(-c3ccccc3)co2)c1 (stereo unspecified) .
0.02

Ok, now CCOc1cc(OC(C)C)c(F)c(C(Nc2ccc(C(=N)N)cc2)c2nc3ccccc3[nH]2)c1 (stereo unspecified)
0.14

Another compound to check: CCOc1cc(OC(C)C)c(F)c(C(Nc2ccc(C(=N)N)cc2)c2ccc3ccccc3n2)c1 (stereo unspecified)
0.049

Next record, please: CCOc1cc(C(Nc2ccc(C(=N)N)cc2)c2nc3ccccc3s2)ccc1OC(C)C (stereo unspecified)
0.08

Again, but for CCOc1cc(OC(C)C)c(F)c(C(Nc2ccc(C(=N)N)cc2)c2nc(-c3ccccc3C(=O)OC)c[nH]2)c1 (stereo unspecified)
0.013

Also need CCOc1cc(OC(C)C)c(F)c(C(Nc2ccc(C(=N)N)cc2)c2nc(-c3ccccc3C)c[nH]2)c1 (stereo unspecified) , thanks.
0.019

Do the same for CCOc1cc(C(Nc2ccc(C(=N)N)cc2)c2ncc[nH]2)ccc1OC(C)C (stereo unspecified) please
0.52

// same read-out, input: CCOc1cc(OC(C)C)c(F)c(C(Nc2ccc(C(=N)N)cc2)c2nc(-c3ccccc3C(C)=O)c[nH]2)c1 (stereo unspecified)
0.005

Entry to check: CCOc1cc(OC(C)C)c(F)c(C(Nc2ccc(C(=N)N)cc2)c2nc(-c3ccccc3)cn2C)c1 (stereo unspecified)
0.015

// query: CCOc1cc(OC(C)C)c(F)c(C(Nc2ccc(C(=N)N)cc2)c2nc(-c3ccc(C)cc3)c[nH]2)c1 (stereo unspecified)
0.207

And CCOc1cc(OC(C)C)c(F)c(C(Nc2ccc(C(=N)N)cc2)c2nc(-c3ccc(OC)cc3)c[nH]2)c1 (stereo unspecified) ?
1.02

Request: CCOc1cc(OC(C)C)c(F)c(C(Nc2ccc(C(=N)N)cc2)c2nc(-c3ccccc3C(=O)N(C)C)c[nH]2)c1 (stereo unspecified)
0.079

Same read-out for CCOc1cc(C(Nc2ccc(C(=N)N)cc2)c2nccs2)ccc1OC(C)C (stereo unspecified) ?
2.1

Same thing, different compound: CCOc1cc(OC(C)C)c(F)c(C(Nc2ccc(C(=N)N)cc2)c2nnn[nH]2)c1 (stereo unspecified)
0.049

CCOc1cc(OC(C)C)c(F)c(C(Nc2ccc(C(=N)N)cc2)c2ncc(-c3ccccc3)n2C)c1 (stereo unspecified) ?
1.8

Same for CCOc1cc(OC(C)C)c(F)c(C(Nc2ccc(C(=N)N)cc2)c2nc3ccccc3s2)c1 (stereo unspecified)
0.42
